tested on: NCI-H2405; test: Cell panel screen (CellTiter-Glo); assay type: cell-based, human; conditions: NCI-H2405 (Lung), 20 micromolar, 72 hrs
Measured endpoint: Percent Inhibition (%)
A number alone suffices; assume %.

[in] Which measured Percent Inhibition value corresponds to COc1c(CC=C(C)C)cc2c(=O)c3c(O)cc(O)cc3oc2c1O [gl-16] ?
[out] 12

[in] Which measured Percent Inhibition value corresponds to CC(C)=CCc1c2c(c(O)c3c1OC14C(=CC5CC1C(C)(C)OC4(CC=C(C)C(=O)O)C5=O)C3=O)C=CC(C)(C)O2 (centres unmarked) [GB27] ?
[out] 98

[in] Which measured Percent Inhibition value corresponds to COc1cc(O)c2c(=O)c3cc4c(c(O)c3oc2c1CC=C(C)C)OC(C)(C)C=C4 [gl-12] ?
[out] 11

[in] Which measured Percent Inhibition value corresponds to CC(C)=CCC[C@@]1(C)C=Cc2c(O)c3c(c(CC=C(C)C)c2O1)O[C@]12C(=C[C@@H]4C[C@H]1C(C)(C)O[C@@]2(C/C=C(/C)C(=O)O)C4=O)C3=O [GB11] ?
[out] 98

[in] Which measured Percent Inhibition value corresponds to COc1cc(O)c2c(=O)c3c(CC=C(C)C)cc(O)c(O)c3oc2c1CC=C(C)CCC=C(C)C [Go-23] ?
[out] 98

[in] Which measured Percent Inhibition value corresponds to CC(C)=CCc1c(O)c(O)cc2oc3cc(O)cc(O)c3c(=O)c12 [bn-10] ?
[out] -8

[in] Which measured Percent Inhibition value corresponds to COC(=O)C1OC(Oc2cc(O)c3c(c2)OC(c2ccc(O)c(O)c2)CC3=O)C(O)C(O)C1O (centres unmarked) [gly-5] ?
[out] 5

[in] Which measured Percent Inhibition value corresponds to O=c1c2cc(O)ccc2oc2cccc(O)c12 [Gof3] ?
[out] -13

* * *

Tested on: HGC-27
Assay: Cell panel screen (CellTiter-Glo)
Format: cell-based, human
Details: HGC-27 (Stomach), 20 micromolar, 72 hrs
Description: All cells were obtained from the cell bank of the American Type Culture Collection (ATCC) and cultured in the supplier's recommended media supplemented with 10% FBS. The cell panel screen was measured using the CellTiter-Glo assay (Promega, Madison, WI) following a standard protocol. […] The plate was then read on a FlexStation 3 microplate luminometer (Molecular Devices, USA) to monitor the luminescence signal generated by the luciferase-catalyzed reaction of luciferin and ATP. […]
Exercise: state measured Percent Inhibition for each of the compounds provided.

[in] Which measured Percent Inhibition value corresponds to CCOC(=O)C1OC(Oc2cc(O)c3c(c2)OC(c2ccc(O)c(O)c2)CC3=O)C(O)C(O)C1O (stereo not drawn) [gly-3] ?
[out] -11%

[in] Which measured Percent Inhibition value corresponds to COc1c(CC=C(C)C)cc2c(=O)c3c(O)cc(O)cc3oc2c1OC [gl-6] ?
[out] 55%

[in] Which measured Percent Inhibition value corresponds to O=C1c2c(O)cc(O)cc2OC(c2ccc(O)c(O)c2)C1O (stereo not drawn) [gl-34] ?
[out] -8%

[in] Which measured Percent Inhibition value corresponds to COc1cc(O)c2c(=O)c3c(CC=C(C)C)cc(O)c(O)c3oc2c1CC=C(C)CCC=C(C)C [Go-23] ?
[out] 97%

[in] Which measured Percent Inhibition value corresponds to CC(C)=CCc1c(O)cc2oc3c(c(=O)c2c1O)C(CC=C(C)C)(CC=C(C)C)C(=O)C(O)=C3 [bn-2, Allanxanthone C] ?
[out] 53%

[in] Which measured Percent Inhibition value corresponds to O=C1CC(c2ccc(O)c(O)c2)Oc2cc(OC3OC(C(=O)O)C(O)C(O)C3O)cc(O)c21 (stereo not drawn) [gly-2] ?
[out] 0%

[in] Which measured Percent Inhibition value corresponds to CC(C)=CCc1c2c(c3oc4c(O)c(O)ccc4c(=O)c3c1O)C=CC(C)(C)O2 [Compound C-6] ?
[out] 18%

[in] Which measured Percent Inhibition value corresponds to O=C(c1ccc(O)c(O)c1)c1c(O)cc(O)cc1O [gl-25] ?
[out] -3%

[in] Which measured Percent Inhibition value corresponds to COc1c(O)c(O)c2c(=O)c3c(CC=C(C)C)c(CC=C(C)C)c(O)c(O)c3oc2c1CC=C(C)C [Compound N-7] ?
[out] 0%

[in] Which measured Percent Inhibition value corresponds to COc1ccc2c(=O)c3c(O)cc(O)cc3oc2c1OC [Go-14] ?
[out] -2%

[in] Which measured Percent Inhibition value corresponds to CC(C)=CCC/C(C)=C/Cc1c(O)c(CC=C(C)C)c2c(c1O)C(=O)C1=C[C@@H]3C[C@H]4C(C)(C)O[C@@](C/C=C(/C)C(=O)O)(C3=O)[C@@]14O2 [GB16] ?
[out] 100%

[in] Which measured Percent Inhibition value corresponds to CC(C)=CCc1c(O)cc2oc3cc(O)c(O)c(CCC(C)(C)O)c3c(=O)c2c1O [bn-16, Garcinone C] ?
[out] 77%

[in] Which measured Percent Inhibition value corresponds to CC(C)=CCc1c(O)cc2oc3ccc(O)cc3c(=O)c2c1O [Ge-1] ?
[out] 54%

[in] Which measured Percent Inhibition value corresponds to COc1cc(O)c2c(=O)c3ccc(O)c(O)c3oc2c1CC=C(C)C [gl-17] ?
[out] 92%

[in] Which measured Percent Inhibition value corresponds to CC(C)=CCc1c2c(c(O)c3c1O[C@]14C(=C[C@@H]5C[C@H]1C(C)(C)O[C@@]4(C/C=C(\C)CO)C5=O)C3=O)C=CC(C)(C)O2 [GB18] ?
[out] 99%

[in] Which measured Percent Inhibition value corresponds to COC(=O)C1OC(Oc2cc(O)c3c(=O)cc(-c4ccc(O)cc4)oc3c2)C(O)C(O)C1O (stereo not drawn) [WZ-6] ?
[out] -8%

[in] Which measured Percent Inhibition value corresponds to O=c1c2cc(O)ccc2oc2cccc(O)c12 [gl-20] ?
[out] 69%

[in] Which measured Percent Inhibition value corresponds to CC(C)=CCc1c(O)cc(O)c2c1O[C@]13C(=C[C@@H]4C[C@H]1C(C)(C)O[C@@]3(CC=C(C)C)C4=O)C2=O [GB35] ?
[out] 100%

[in] Which measured Percent Inhibition value corresponds to CC1(C)C=Cc2cc3c(=O)c4c(O)cc(O)cc4oc3c(O)c2O1 [Go-11] ?
[out] 54%

[in] Which measured Percent Inhibition value corresponds to CC1(C)C=Cc2c(cc(O)c3c(=O)c4ccc(O)c(O)c4oc23)O1 [gl-18] ?
[out] 92%

[in] Which measured Percent Inhibition value corresponds to CC1(C)C=Cc2c(cc(O)c3c(=O)c4cc5c(c(O)c4oc23)OC(C)(C)C=C5)O1 [Go-16] ?
[out] 28%

[in] Which measured Percent Inhibition value corresponds to O=c1c2cc(O)ccc2oc2cccc(O)c12 [Gof3] ?
[out] 34%

[in] Which measured Percent Inhibition value corresponds to CC(C)=CCC[C@@]1(C)C=Cc2c(O)c3c(c(CC=C(C)C)c2O1)O[C@]12C(=C[C@@H]4C[C@H]1C(C)(C)O[C@@]2(C/C=C(/C)C(=O)O)C4=O)C3=O [GB11] ?
[out] 98%

[in] Which measured Percent Inhibition value corresponds to O=c1c2cc(O)c(O)cc2oc2cc(O)cc(O)c12 [Ge-17] ?
[out] 55%

* * *

Tested on: BT-474
Experiment: Cell panel screen (CellTiter-Glo)
Assay type: cell-based, human
Conditions: Homo sapiens; BT-474 (Breast), 20 micromolar, 72 hrs; read-out: Percent Inhibition
Method: All cells were obtained from the cell bank of the American Type Culture Collection (ATCC) and cultured in the supplier's recommended media supplemented with 10% FBS. The cell panel screen was measured using the CellTiter-Glo assay (Promega, Madison, WI) following a standard protocol. […] The plate was then read on a FlexStation 3 microplate luminometer (Molecular Devices, USA) to monitor the luminescence signal generated by the luciferase-catalyzed reaction of luciferin and ATP. […]
Exercise: state measured inhibition at 20 µM for each of the molecules provided.
A number alone suffices; assume %.

[in] Which measured inhibition at 20 µM value corresponds to CC(C)=CCC[C@@]1(C)C=Cc2c(O)c3c(c(C/C=C(\C)CO)c2O1)O[C@]12C(=C[C@@H]4C[C@H]1C(C)(C)O[C@@]2(C/C=C(/C)C(=O)O)C4=O)C3=O [GB40, 35-hydroxyepigambogic acid] ?
[out] 99

[in] Which measured inhibition at 20 µM value corresponds to CC(C)=CCC/C(C)=C/Cc1c(O)c(CC=C(C)C)c2c(c1O)C(=O)C1=C[C@@H]3C[C@H]4C(C)(C)O[C@@](C/C=C(\C)C(=O)O)(C3=O)[C@@]14O2 [GB63] ?
[out] 99

[in] Which measured inhibition at 20 µM value corresponds to CC(C)=CCC/C(C)=C/Cc1c(O)c(CC=C(C)C)c2c(c1O)C(=O)C1=C[C@@H]3C[C@H]4C(C)(C)O[C@@](C/C=C(\C)C=O)(C3=O)[C@@]14O2 [GB49] ?
[out] 99

[in] Which measured inhibition at 20 µM value corresponds to CC(C)=CCC[C@@]1(C)C=Cc2c(O)c3c(c(CCC(C)(C)O)c2O1)O[C@]12C(=C[C@@H]4C[C@H]1C(C)(C)O[C@@]2(C/C=C(/C)C(=O)O)C4=O)C3=O [GB39, 33-hydroxyepigambogic acid] ?
[out] 100

[in] Which measured inhibition at 20 µM value corresponds to CC(C)=CCc1c(O)cc2oc3c(CC=C(C)C)c(O)c(O)c(CC=C(C)C)c3c(=O)c2c1O [bn-1, Garcinone E] ?
[out] 87
